Form field: MRT inf (one value per entry).
test: Rat plasma pharmacokinetics after single-dose vehicle/SLE and digoxin or GE; format: in vivo, Sprague-Dawley rats; conditions: female, Sprague-Dawley, rat, plasma, po, rats, single SLE 500 mg/kg ig, 2 h later digoxin 0.5 mg/kg or GE 120 mg/kg ig; read-out: MRTINF_obs
# output: bare number, implied unit h

Below, each entry is followed by its recorded MRT inf result.
INSERT INTO results (compound, reading_unit, data_value) VALUES
  ('CC(C)=CCC[C@](C)(O[C@@H]1O[C@H](CO[C@@H]2OC[C@H](O)[C@H](O)[C@H]2O)[C@@H](O)[C@H](O)[C@H]1O)[C@H]1CC[C@]2(C)[C@@H]1[C@H](O)C[C@@H]1[C@@]3(C)CC[C@H](O[C@@H]4O[C@H](CO)[C@@H](O)[C@H](O)[C@H]4O[C@@H]4O[C@H](CO)[C@@H](O)[C@H](O)[C@H]4O)C(C)(C)[C@@H]3CC[C@]12C [Rb2, ginsenoside Rb2]', 'h', 25.2),
  ('C[C@H]1O[C@@H](O[C@H]2[C@@H](O)C[C@H](O[C@H]3[C@@H](O)C[C@H](O[C@H]4CC[C@@]5(C)[C@H](CC[C@@H]6[C@@H]5C[C@@H](O)[C@]5(C)[C@@H](C7=CC(=O)OC7)CC[C@]65O)C4)O[C@@H]3C)O[C@@H]2C)C[C@H](O)[C@@H]1O [Digoxin, digoxin, reference compound]', 'h', 5.06),
  ('CC(C)=CCC[C@](C)(O[C@@H]1O[C@H](CO)[C@@H](O)[C@H](O)[C@H]1O)[C@H]1CC[C@]2(C)[C@@H]1[C@H](O)C[C@@H]1[C@@]3(C)CC[C@H](O[C@@H]4O[C@H](CO)[C@@H](O)[C@H](O)[C@H]4O[C@@H]4O[C@H](CO)[C@@H](O)[C@H](O)[C@H]4O)C(C)(C)[C@@H]3CC[C@]12C [Rd, ginsenoside Rd]', 'h', 25.1);

// next item, MRT inf requested
Ask | GET /values?readout=MRT inf&item= CC(C)=CCC[C@](C)(O[C@@H]1O[C@H](CO[C@@H]2O[C@H](CO)[C@@H](O)[C@H](O)[C@H]2O)[C@@H](O)[C@H](O)[C@H]1O)[C@H]1CC[C@]2(C)[C@@H]1[C@H](O)C[C@@H]1[C@@]3(C)CC[C@H](O[C@@H]4O[C@H](CO)[C@@H](O)[C@H](O)[C@H]4O[C@@H]4O[C@H](CO)[C@@H](O)[C@H](O)[C@H]4O)C(C)(C)[C@@H]3CC[C@]12C [Rb1, ginsenoside Rb1]
Reply | 23.5

###

biological target: P-gp (MDR1) (Homo sapiens, UniProt P08183); test: Transport of digoxin and ginsenosides across L-MDR1 cell monolayers (efflux ratio); assay type: in vitro ADME; conditions: human, LLC-PK1, pH 7.4, L-MDR1 cells, control (absence of verapamil), GE 100 µg/mL, 2 h; read-out: Efflux ratio (Papp BL-AP / Papp AP-BL)
Sequence (P08183 whole entry): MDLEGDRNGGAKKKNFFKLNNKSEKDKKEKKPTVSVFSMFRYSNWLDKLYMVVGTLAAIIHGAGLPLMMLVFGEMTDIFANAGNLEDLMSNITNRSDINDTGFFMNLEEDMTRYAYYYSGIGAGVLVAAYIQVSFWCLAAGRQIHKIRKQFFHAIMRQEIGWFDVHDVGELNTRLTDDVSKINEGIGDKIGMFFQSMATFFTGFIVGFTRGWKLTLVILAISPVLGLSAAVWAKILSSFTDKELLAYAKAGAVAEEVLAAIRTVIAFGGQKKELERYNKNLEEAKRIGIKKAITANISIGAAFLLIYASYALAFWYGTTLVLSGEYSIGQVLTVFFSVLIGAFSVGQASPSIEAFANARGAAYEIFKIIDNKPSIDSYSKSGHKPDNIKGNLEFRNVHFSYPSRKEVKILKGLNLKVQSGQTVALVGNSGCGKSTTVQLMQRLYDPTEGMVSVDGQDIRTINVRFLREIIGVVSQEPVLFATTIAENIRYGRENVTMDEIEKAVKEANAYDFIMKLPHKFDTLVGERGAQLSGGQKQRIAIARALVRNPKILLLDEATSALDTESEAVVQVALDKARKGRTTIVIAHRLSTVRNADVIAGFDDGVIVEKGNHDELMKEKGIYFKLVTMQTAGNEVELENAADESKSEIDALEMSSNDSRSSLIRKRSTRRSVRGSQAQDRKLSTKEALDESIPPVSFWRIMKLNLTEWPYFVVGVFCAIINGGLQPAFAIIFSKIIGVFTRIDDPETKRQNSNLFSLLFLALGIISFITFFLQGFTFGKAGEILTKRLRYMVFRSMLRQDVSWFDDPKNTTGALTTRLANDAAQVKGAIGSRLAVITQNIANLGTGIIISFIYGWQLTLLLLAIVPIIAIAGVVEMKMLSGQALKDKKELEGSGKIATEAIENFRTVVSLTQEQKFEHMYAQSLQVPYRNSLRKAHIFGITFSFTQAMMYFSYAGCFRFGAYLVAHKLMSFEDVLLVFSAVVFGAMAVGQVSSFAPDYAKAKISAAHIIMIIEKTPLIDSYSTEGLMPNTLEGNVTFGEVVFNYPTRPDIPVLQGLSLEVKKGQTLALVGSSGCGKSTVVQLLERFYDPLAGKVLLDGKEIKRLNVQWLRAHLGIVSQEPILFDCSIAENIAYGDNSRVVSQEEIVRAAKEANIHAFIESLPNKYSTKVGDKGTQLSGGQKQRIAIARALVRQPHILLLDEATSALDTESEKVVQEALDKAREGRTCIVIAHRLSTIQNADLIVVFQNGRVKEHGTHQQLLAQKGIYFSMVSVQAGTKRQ
Form field: efflux ratio at 2 h, 100 µg/mL (one value per entry).

Below, each entry is followed by its recorded efflux ratio at 2 h, 100 µg/mL result.
INSERT INTO results (molecule, outcome_measure, data_value) VALUES
  ('CC(C)=CCC[C@](C)(O)[C@H]1CC[C@]2(C)[C@@H]1[C@H](O)C[C@@H]1[C@@]3(C)CC[C@H](O)C(C)(C)[C@@H]3[C@@H](O[C@@H]3O[C@H](CO)[C@@H](O)[C@H](O)[C@H]3O)C[C@]12C [Rh1, ginsenoside Rh1]', 'efflux ratio at 2 h, 100 µg/mL', '< 2'),
  ('CC(C)=CCC[C@](C)(O[C@@H]1O[C@H](CO)[C@@H](O)[C@H](O)[C@H]1O)[C@H]1CC[C@]2(C)[C@@H]1[C@H](O)C[C@@H]1[C@@]3(C)CC[C@H](O)C(C)(C)[C@@H]3[C@@H](O)C[C@]12C [F1, ginsenoside F1]', 'efflux ratio at 2 h, 100 µg/mL', '< 2'),
  ('CC(C)=CCC[C@](C)(O[C@@H]1O[C@H](CO)[C@@H](O)[C@H](O)[C@H]1O)[C@H]1CC[C@]2(C)[C@@H]1[C@H](O)C[C@@H]1[C@@]3(C)CC[C@H](O)C(C)(C)[C@@H]3[C@@H](O[C@@H]3O[C@H](CO)[C@@H](O)[C@H](O)[C@H]3O[C@@H]3O[C@@H](C)[C@H](O)[C@@H](O)[C@H]3O)C[C@]12C [Re, ginsenoside Re]', 'efflux ratio at 2 h, 100 µg/mL', '< 2'),
  ('CC(C)=CCC[C@](C)(O[C@@H]1O[C@H](CO)[C@@H](O)[C@H](O)[C@H]1O)[C@H]1CC[C@]2(C)[C@@H]1[C@H](O)C[C@@H]1[C@@]3(C)CC[C@H](O)C(C)(C)[C@@H]3[C@@H](O[C@@H]3O[C@H](CO)[C@@H](O)[C@H](O)[C@H]3O)C[C@]12C [Rg1, ginsenoside Rg1]', 'efflux ratio at 2 h, 100 µg/mL', '< 2'),
  ('C[C@H]1O[C@@H](O[C@H]2[C@@H](O)C[C@H](O[C@H]3[C@@H](O)C[C@H](O[C@H]4CC[C@@]5(C)[C@H](CC[C@@H]6[C@@H]5C[C@@H](O)[C@]5(C)[C@@H](C7=CC(=O)OC7)CC[C@]65O)C4)O[C@@H]3C)O[C@@H]2C)C[C@H](O)[C@@H]1O [Digoxin, digoxin, reference compound]', 'efflux ratio at 2 h, 100 µg/mL', 26.2),
  ('CC(C)=CCC[C@](C)(O)[C@H]1CC[C@]2(C)[C@@H]1[C@H](O)C[C@@H]1[C@@]3(C)CC[C@H](O)C(C)(C)[C@@H]3[C@@H](O[C@@H]3O[C@H](CO)[C@@H](O)[C@H](O)[C@H]3O[C@@H]3O[C@@H](C)[C@H](O)[C@@H](O)[C@H]3O)C[C@]12C [Rg2, ginsenoside Rg2]', 'efflux ratio at 2 h, 100 µg/mL', '> 3.5'),
  ('CC(C)=CCC[C@](C)(O[C@@H]1O[C@H](CO[C@@H]2O[C@H](CO)[C@@H](O)[C@H](O)[C@H]2O)[C@@H](O)[C@H](O)[C@H]1O)[C@H]1CC[C@]2(C)[C@@H]1[C@H](O)C[C@@H]1[C@@]3(C)CC[C@H](O[C@@H]4O[C@H](CO)[C@@H](O)[C@H](O)[C@H]4O[C@@H]4O[C@H](CO)[C@@H](O)[C@H](O)[C@H]4O)C(C)(C)[C@@H]3CC[C@]12C [Rb1, ginsenoside Rb1]', 'efflux ratio at 2 h, 100 µg/mL', '> 3.5');

// next item, efflux ratio at 2 h, 100 µg/mL requested
Ask | GET /values?readout=efflux ratio at 2 h, 100 µg/mL&item= CC(C)=CCC[C@](C)(O[C@@H]1O[C@H](CO[C@@H]2O[C@@H](CO)[C@H](O)[C@H]2O)[C@@H](O)[C@H](O)[C@H]1O)[C@H]1CC[C@]2(C)[C@@H]1[C@H](O)C[C@@H]1[C@@]3(C)CC[C@H](O[C@@H]4O[C@H](CO)[C@@H](O)[C@H](O)[C@H]4O[C@@H]4O[C@H](CO)[C@@H](O)[C@H](O)[C@H]4O)C(C)(C)[C@@H]3CC[C@]12C [Rc, ginsenoside Rc]
Reply | > 3.5

###

assay: Transport of digoxin and ginsenosides across Caco-2 cell monolayer (efflux ratio); format: in vitro ADME, human; conditions: human, pH 7.4; Caco-2 cell monolayer, absence of inhibitor, GE 100 µg/mL; read-out: Efflux ratio
Form field: efflux ratio at 2 h, 100 µg/mL (one value per entry).
No unit in the answer, please; the number alone is enough.

INSERT INTO assay_data (compound, data_value) VALUES
  ('CC(C)=CCC[C@](C)(O[C@@H]1O[C@H](CO)[C@@H](O)[C@H](O)[C@H]1O)[C@H]1CC[C@]2(C)[C@@H]1[C@H](O)C[C@@H]1[C@@]3(C)CC[C@H](O[C@@H]4O[C@H](CO)[C@@H](O)[C@H](O)[C@H]4O[C@@H]4O[C@H](CO)[C@@H](O)[C@H](O)[C@H]4O)C(C)(C)[C@@H]3CC[C@]12C [Rd, ginsenoside Rd]', 4.47);

Ask | GET /values?readout=efflux ratio at 2 h, 100 µg/mL&item= C[C@H]1O[C@@H](O[C@H]2[C@@H](O)C[C@H](O[C@H]3[C@@H](O)C[C@H](O[C@H]4CC[C@@]5(C)[C@H](CC[C@@H]6[C@@H]5C[C@@H](O)[C@]5(C)[C@@H](C7=CC(=O)OC7)CC[C@]65O)C4)O[C@@H]3C)O[C@@H]2C)C[C@H](O)[C@@H]1O [Digoxin, digoxin, reference compound]
Reply | 3.23

Ask | // query: CC(C)=CCC[C@](C)(O[C@@H]1O[C@H](CO[C@@H]2O[C@H](CO)[C@@H](O)[C@H](O)[C@H]2O)[C@@H](O)[C@H](O)[C@H]1O)[C@H]1CC[C@]2(C)[C@@H]1[C@H](O)C[C@@H]1[C@@]3(C)CC[C@H](O[C@@H]4O[C@H](CO)[C@@H](O)[C@H](O)[C@H]4O[C@@H]4O[C@H](CO)[C@@H](O)[C@H](O)[C@H]4O)C(C)(C)[C@@H]3CC[C@]12C [Rb1, ginsenoside Rb1]
Reply | 3.77
